Test system: Yap1 mRNA
Experiment: Dose-dependent inhibition of human Yap1 in A-431 cells (Example 7, 10,000 cells per well, RTS36584)
Assay type: cell-based
Conditions: Table 59, A-431 cells 10,000 cells per well, free uptake
Strand notation (5' to 3'): a small letter for the sugar, then the base; units joined by * are phosphorothioate-linked, units joined directly phosphodiester-linked; [ ] holds rarer units or linkages, { } end groups; capitals alone tell only the bases. k = constrained ethyl (cEt); [5mC] = 5-methylcytosine; d = 2'-deoxy (DNA)
quantity: pIC50
Just so you know, pIC50 here is -log10 of the concentration in molar units; reply with that number alone.

| substance | recorded_number |
| --- | --- |
| 958563 (kA*kG*k[5mC]*dT*dT*dT*dT*dG*d[5mC]*d[5mC]*dA*dG*dG*kA*kG*kA; antisense) [compound 958563] | 7.00 |
| 958498 (kG*kA*kG*dT*dA*dT*dG*dT*dG*dG*d[5mC]*dA*dA*kT*kA*kA; antisense) [compound 958498] | 7.70 |

Ask: Please look up its pIC50: 958623 (kT*kT*kG*dA*dT*dA*dT*dT*d[5mC]*d[5mC]*dG*d[5mC]*dA*kT*kT*kG; antisense) [compound 958623]
Result: 7.00

###

Test system: Yap1 mRNA
Test: Dose-dependent inhibition of human Yap1 in A-431 cells (Example 8, 10,000 cells per well, RTS4814)
Type: cell-based
Conditions: 125.0 nM; A-431 cells
Description: Modified oligonucleotides described in the studies above were tested at various doses in A-431 cells. […] After approximately 48 hours, Yap1 mRNA levels were measured as previously described using the Human Yap1 primer-probe set RTS4814. Yap1 mRNA levels were normalized to total RNA content, as measured by RIBOGREEN®. […] IC50s were calculated using a linear regression on a log/linear plot of the data in excel.
Strand notation (5' to 3'): a small letter for the sugar, then the base; units joined by * are phosphorothioate-linked, units joined directly phosphodiester-linked; [ ] holds rarer units or linkages, { } end groups; capitals alone tell only the bases. k = constrained ethyl (cEt); [5mC] = 5-methylcytosine; d = 2'-deoxy (DNA)
quantity: % UTC (Yap1 mRNA)

# annotated cases, reported % UTC (Yap1 mRNA) shown
| substance | quantity | result |
| --- | --- | --- |
| 1074453 (kG*kT*kG*dA*d[5mC]*dT*dA*dA*dT*dG*dA*dT*dA*kG*k[5mC]*kA; antisense) [compound 1074453] | % UTC (Yap1 mRNA) | 18 % UTC |
| 1074548 (kA*kT*k[5mC]*dT*dA*d[5mC]*d[5mC]*dG*dT*dA*dT*dG*d[5mC]*k[5mC]*k[5mC]*kA; antisense) [compound 1074548] | % UTC (Yap1 mRNA) | 15 % UTC |
| 1074485 (kT*kT*k[5mC]*dA*d[5mC]*dT*dA*dA*dT*dA*dT*dG*dG*kT*k[5mC]*kA; antisense) [compound 1074485] | % UTC (Yap1 mRNA) | 14 % UTC |
| 1076085 (kA*k[5mC]*kT*dA*dA*dT*dA*dG*dG*d[5mC]*d[5mC]*dA*dT*k[5mC]*kT*kG; antisense) [compound 1076085] | % UTC (Yap1 mRNA) | 34 % UTC |
| 1074486 (kA*kT*kT*d[5mC]*dA*d[5mC]*dT*dA*dA*dT*dA*dT*dG*kG*kT*k[5mC]; antisense) [compound 1074486] | % UTC (Yap1 mRNA) | 26 % UTC |

Please look at the following substance next.
Ask: Please look up its % UTC (Yap1 mRNA): 1075893 (antisense k[5mC]*kG*kT*dG*dA*dA*dA*dA*dA*dG*dA*dT*dG*kT*kG*kG) [compound 1075893]
Result: 29 % UTC
